These entries and their values trace back to ChEMBL document CHEMBL1138398.

# System: HepG2
# method_description: Cytotoxicity against HepG2 2.2.15 cells
# Assay type: functional
# condition_parameters: Homo sapiens
property_measured: CC50
Numeric answer plus unit only.

smiles_structure	property_measured	recorded_result
CC(C)(C)C(=O)OCOP(=O)(COCCn1cnc2c(N)ncnc21)OCOC(=O)C(C)(C)C.Cl	CC50	0.54 mM
CC(C)C[C@H](N)C(=O)SCCOP(=O)(COCCn1cnc2c(N)ncnc21)OCCSC(=O)[C@@H](N)CC(C)C.Cl	CC50	3.41 mM

Next, consider the following molecule.
Data request, read-out CC50, for `CC(C)C[C@H](N)C(=O)OCCOP(=O)(COCCn1cnc2c(N)ncnc21)OCCOC(=O)[C@@H](N)CC(C)C.Cl`
6.64 mM

###

Consider the following molecules; for each one, report its CC50.
# System: HepG2
# method_description: Cytotoxicity against HepG2 2.2.15 cells
# Format: functional
# condition_parameters: Homo sapiens
Numbers only, in mM.

Would you please look over these solved cases?
smiles_structure	recorded_result
Cl.Nc1ncnc2c1ncn2CCOCP(=O)(OCCOC(=O)[C@@H](N)Cc1ccccc1)OCCOC(=O)[C@@H](N)Cc1ccccc1	2.59
CC(C)[C@H](N)C(=O)OCCOP(=O)(COCCn1cnc2c(N)ncnc21)OCCOC(=O)[C@@H](N)C(C)C.Cl	2.59
Cl.Nc1ccn([C@@H]2CS[C@H](CO)O2)c(=O)n1	0.23

Count: 5. Required value per item: CC50.
1. CC(C)[C@H](N)C(=O)OCOP(=O)(COCCn1cnc2c(N)ncnc21)OCOC(=O)[C@@H](N)C(C)C.Cl
2. C[C@H](N)C(=O)SCCOP(=O)(COCCn1cnc2c(N)ncnc21)OCCSC(=O)[C@H](C)N.Cl
3. C[C@H](N)C(=O)OCCOP(=O)(COCCn1cnc2c(N)ncnc21)OCCOC(=O)[C@H](C)N.Cl
4. CC(C)C[C@H](N)C(=O)OCOP(=O)(COCCn1cnc2c(N)ncnc21)OCOC(=O)[C@@H](N)CC(C)C.Cl
5. Cl.NCC(=O)SCCOP(=O)(COCCn1cnc2c(N)ncnc21)OCCSC(=O)CN

1. 3.38
2. 2.42
3. 1.84
4. 8.56
5. 0.259

###

# method_description: Metabolic stability assessed as half life in human plasma
# Type: ADME, cell-free
property_measured: half-life

smiles_structure	property_measured	recorded_result
CC(C)C[C@H](N)C(=O)OCCOP(=O)(COCCn1cnc2c(N)ncnc21)OCCOC(=O)[C@@H](N)CC(C)C.Cl	half-life	4.5 h
CC(C)(C)C(=O)OCOP(=O)(COCCn1cnc2c(N)ncnc21)OCOC(=O)C(C)(C)C.Cl	half-life	0.75 h
Cl.Nc1ncnc2c1ncn2CCOCP(=O)(OCCOC(=O)[C@@H](N)Cc1ccccc1)OCCOC(=O)[C@@H](N)Cc1ccccc1	half-life	0.25 h

Next compound, please.
Can you look up the measured half-life of `CC(C)[C@H](N)C(=O)OCCOP(=O)(COCCn1cnc2c(N)ncnc21)OCCOC(=O)[C@@H](N)C(C)C.Cl` for me?
2 h
